Test: Metabolic stability of compound in rat liver microsomes assessed as elimination half-life at 0.2 uM in presence of NADPH by LC-MS/MS analysis
Type: ADME, Microsome
Details: read-out: beta t1/2
Experimental Readout: half-life at 0.2 µM (min)
Response body: numeric value in min, unit text excluded.

Need half-life at 0.2 µM, item `CCOC(=O)c1c(C)nc(-c2cccc(C#N)c2)n1OCc1ccc(C#N)cc1`
23.1

----------
Biological target: Cytochrome P450 1A2 (Homo sapiens)
Sequence (P05177 whole entry): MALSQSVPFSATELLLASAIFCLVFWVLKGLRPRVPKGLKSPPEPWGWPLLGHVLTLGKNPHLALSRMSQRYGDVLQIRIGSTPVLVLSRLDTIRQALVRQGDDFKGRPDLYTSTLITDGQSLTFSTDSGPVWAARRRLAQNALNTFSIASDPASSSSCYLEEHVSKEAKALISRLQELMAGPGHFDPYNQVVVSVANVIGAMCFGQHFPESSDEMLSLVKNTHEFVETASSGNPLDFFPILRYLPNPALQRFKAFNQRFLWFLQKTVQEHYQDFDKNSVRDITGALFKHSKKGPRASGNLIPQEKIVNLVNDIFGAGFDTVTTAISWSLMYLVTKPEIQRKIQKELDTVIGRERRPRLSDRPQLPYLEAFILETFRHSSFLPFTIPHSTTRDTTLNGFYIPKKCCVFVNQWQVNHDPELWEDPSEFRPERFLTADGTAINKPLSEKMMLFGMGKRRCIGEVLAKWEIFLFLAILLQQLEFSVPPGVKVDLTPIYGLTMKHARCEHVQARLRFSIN
Experimental Readout: IC50

Recall the recorded IC50 for `Cc1nc(-c2cccc(C#N)c2)n(OCc2ccc(C#N)cc2)c1C(=O)O` with Cytochrome P450 1A2 (Homo sapiens) and state it.
> 10 µM

----------
The reader will find reported inhibition at 2 h, 10 µM values listed item by item below.
Target: CYP2A6 (Homo sapiens)
Sequence (P11509 whole entry): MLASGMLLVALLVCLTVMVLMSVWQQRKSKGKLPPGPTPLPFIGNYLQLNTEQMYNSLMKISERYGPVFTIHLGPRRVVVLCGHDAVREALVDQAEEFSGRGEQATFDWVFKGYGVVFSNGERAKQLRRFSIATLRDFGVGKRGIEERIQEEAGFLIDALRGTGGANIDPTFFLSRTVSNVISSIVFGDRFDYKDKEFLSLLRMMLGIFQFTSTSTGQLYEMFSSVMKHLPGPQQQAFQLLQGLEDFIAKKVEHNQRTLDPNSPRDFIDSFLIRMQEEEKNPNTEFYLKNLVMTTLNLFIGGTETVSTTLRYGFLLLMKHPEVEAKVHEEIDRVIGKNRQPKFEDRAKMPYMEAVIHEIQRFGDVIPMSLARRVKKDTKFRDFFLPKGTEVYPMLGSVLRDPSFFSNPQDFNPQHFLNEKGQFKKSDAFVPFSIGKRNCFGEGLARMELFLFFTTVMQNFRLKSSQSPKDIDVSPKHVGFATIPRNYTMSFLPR
Test: Inhibition of CYP2A6 in human liver microsomes at 10 uM using coumarin as substrate preincubated for 5 mins followed by NADPH generating system addition and measured after 120 mins by LC-MS/MS analysis relative to control
Format: ADME
Details: probe coumarin, time 125 min
Response body: numeric value in %, unit text excluded.

CCOC(=O)c1c(C)nc(-c2cccc(C#N)c2)n1OCc1ccc(C#N)cc1	7.69

Next, consider the following compound.
Need inhibition at 2 h, 10 µM, item `Cc1nc(-c2cccc(C#N)c2)n(OCc2ccc(C#N)cc2)c1C(=O)O`
3.64

----------
The reader will find reported half-life values listed item by item below.
Test: Elimination half-life in male Sprague-Dawley rat at 10 mg/kg, po administered as single dose by LC-MS analysis
Assay type: ADME, organism-based
Details: in vivo, read-out: beta t1/2 (converted)
Response body: numeric value in h, unit text excluded.

CCOC(=O)c1c(C)nc(-c2cccc(C#N)c2)n1OCc1ccc(C#N)cc1	13.8

Need half-life, item `Cc1nc(-c2cccc(C#N)c2)n(OCc2ccc(C#N)cc2)c1C(=O)O`
13.1

----------
Target: UniProtKB Q9H244
Sequence (Q9H244 whole entry): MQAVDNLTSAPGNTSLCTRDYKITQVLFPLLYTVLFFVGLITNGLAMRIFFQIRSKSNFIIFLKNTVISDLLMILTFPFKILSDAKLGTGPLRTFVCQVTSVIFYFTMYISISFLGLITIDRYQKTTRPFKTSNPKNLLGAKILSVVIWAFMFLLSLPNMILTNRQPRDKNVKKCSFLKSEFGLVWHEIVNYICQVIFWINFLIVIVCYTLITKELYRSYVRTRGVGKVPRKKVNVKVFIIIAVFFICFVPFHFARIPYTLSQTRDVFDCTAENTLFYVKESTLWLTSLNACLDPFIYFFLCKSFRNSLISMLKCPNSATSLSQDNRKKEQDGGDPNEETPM
Assay: Antagonist activity at P2Y12 in human whole blood assessed as suppression of ADP-induced decrease in PGE1-induced VASP phosphorylation measured after 10 mins by immunostaining based flow cytometric analysis
Experimental Readout: IC50 (µM)
Response body: numeric value in µM, unit text excluded.

Cc1nc(-c2cccc(C#N)c2)n(OCc2ccc(C#N)cc2)c1C(=O)O	149

Need IC50, item CCCSc1nc(N[C@@H]2C[C@H]2c2ccc(F)c(F)c2)c2nnn([C@@H]3C[C@H](OCCO)[C@@H](O)[C@H]3O)c2n1 [TICAGRELOR]
5.14

Need IC50, item `CNc1nc(Cl)nc2c1ncn2CC(COC(=O)C(C)(C)C)COC(=O)C(C)(C)C`
176

----------
Target: CYP2E1 (Homo sapiens, UniProt P05181)
Sequence (P05181 whole entry): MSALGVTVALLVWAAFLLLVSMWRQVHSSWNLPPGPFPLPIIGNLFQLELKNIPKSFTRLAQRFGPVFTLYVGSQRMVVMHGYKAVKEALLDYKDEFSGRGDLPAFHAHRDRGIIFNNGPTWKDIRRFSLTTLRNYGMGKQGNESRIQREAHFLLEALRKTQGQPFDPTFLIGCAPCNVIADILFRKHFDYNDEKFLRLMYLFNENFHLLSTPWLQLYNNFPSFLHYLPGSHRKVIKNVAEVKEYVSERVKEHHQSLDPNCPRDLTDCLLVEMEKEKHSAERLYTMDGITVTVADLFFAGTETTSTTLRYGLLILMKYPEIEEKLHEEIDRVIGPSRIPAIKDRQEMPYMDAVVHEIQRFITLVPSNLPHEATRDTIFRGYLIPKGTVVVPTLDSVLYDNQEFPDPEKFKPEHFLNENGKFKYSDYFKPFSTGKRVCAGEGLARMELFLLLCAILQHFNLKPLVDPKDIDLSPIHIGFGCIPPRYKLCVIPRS
Assay: Inhibition of CYP2E1 in human liver microsomes at 10 uM using chlorzoxazone as substrate preincubated for 5 mins followed by NADPH generating system addition and measured after 120 mins by LC-MS/MS analysis relative to control
Assay type: ADME
Details: probe chlorzoxazone, time 125 min
Experimental Readout: inhibition at 2 h, 10 µM (%)
Response body: numeric value in %, unit text excluded.

Cc1nc(-c2cccc(C#N)c2)n(OCc2ccc(C#N)cc2)c1C(=O)O	6.79

Next, consider the following compound.
Recall the recorded inhibition at 2 h, 10 µM for `CCOC(=O)c1c(C)nc(-c2cccc(C#N)c2)n1OCc1ccc(C#N)cc1` with CYP2E1 (Homo sapiens, UniProt P05181) and state it.
8.68

Origin of values: ChEMBL document CHEMBL4673353
